target: TLR2 (Homo sapiens, UniProt O60603); construct: host or cells: HEK293; assay: HEK-TLR2 IL-8 secretion; format: cell-based; settings: 124 ng/ml, 24 h
Sequence (O60603 21-784): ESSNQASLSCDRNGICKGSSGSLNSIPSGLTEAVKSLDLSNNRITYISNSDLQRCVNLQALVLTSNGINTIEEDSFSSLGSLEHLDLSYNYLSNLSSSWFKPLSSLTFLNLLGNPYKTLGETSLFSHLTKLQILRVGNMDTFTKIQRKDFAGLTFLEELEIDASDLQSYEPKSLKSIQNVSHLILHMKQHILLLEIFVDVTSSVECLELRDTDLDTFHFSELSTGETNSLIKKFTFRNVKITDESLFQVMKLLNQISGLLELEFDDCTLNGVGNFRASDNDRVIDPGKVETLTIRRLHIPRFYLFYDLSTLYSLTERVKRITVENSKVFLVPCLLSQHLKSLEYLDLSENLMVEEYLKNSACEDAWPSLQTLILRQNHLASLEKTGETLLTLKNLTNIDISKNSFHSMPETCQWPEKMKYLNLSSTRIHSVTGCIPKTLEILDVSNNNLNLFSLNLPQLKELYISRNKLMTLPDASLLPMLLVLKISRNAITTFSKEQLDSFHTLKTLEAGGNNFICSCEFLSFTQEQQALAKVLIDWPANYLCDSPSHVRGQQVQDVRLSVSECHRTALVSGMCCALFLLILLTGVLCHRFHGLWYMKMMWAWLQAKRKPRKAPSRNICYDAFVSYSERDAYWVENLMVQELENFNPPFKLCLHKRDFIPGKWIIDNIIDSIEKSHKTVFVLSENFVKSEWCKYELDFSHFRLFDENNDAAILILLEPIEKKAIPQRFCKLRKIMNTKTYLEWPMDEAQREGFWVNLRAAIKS
So I've got a bunch of molecules here, and I need their IL-8 secretion, mean values.
Your reply should be a number followed by the unit it is expressed in.

**Query** # lookup: IL-8 secretion, mean of CCCCCCCCCCCC(=O)O[C@H](CCCCCCCCCCC)CC(=O)N[C@H]1[C@H](OC[C@H]2O[C@H](OCC(O)CO)[C@H](NC(=O)C[C@H](O)CCCCCCCCCCC)[C@@H](O)[C@@H]2O)O[C@H](CO)[C@@H](OP(=O)(O)O)[C@@H]1O (stereo partly shown)
**Result** 0.16 pg/mL

**Query** Also `CCCCCCCCCCCC(=O)O[C@H](CCCCCCCCCCC)CC(=O)N[C@H]1[C@H](OC[C@H]2O[C@H](OCCOP(=O)(O)O)[C@H](NC(=O)C[C@H](O)CCCCCCCCCCC)[C@@H](O)[C@@H]2O)O[C@H](CO)[C@@H](OP(=O)(O)O)[C@@H]1O` ?
**Result** 0.23 pg/mL

**Query** Follow-up item: `CCCCCCCCCCCC(=O)O[C@H](CCCCCCCCCCC)CC(=O)N[C@H]1[C@H](OC[C@H]2O[C@H](OCCC)[C@H](NC(=O)C[C@H](O)CCCCCCCCCCC)[C@@H](O)[C@@H]2O)O[C@H](CO)[C@@H](OP(=O)(O)O)[C@@H]1O`
**Result** 0.24 pg/mL

**Query** What do we get for `CCCCCCCCCCCC(=O)O[C@H](CCCCCCCCCCC)CC(=O)N[C@H]1[C@H](OC[C@H]2O[C@H](O)[C@H](NC(=O)C[C@H](O)CCCCCCCCCCC)[C@@H](O)[C@@H]2O)O[C@H](CO)[C@@H](OP(=O)(O)O)[C@@H]1O` ?
**Result** 0.15 pg/mL

====

target: TLR2 (Homo sapiens, UniProt O60603); construct: host or cells: HEK293; assay: HEK-TLR2 IL-8 secretion; assay type: cell-based; conditions: 3333 ng/ml, 24 h
test_readout: IL-8 secretion, mean
Answers without a unit are incomplete; give the number and then its unit.

**Query** What value of IL-8 secretion, mean has been reported for the following molecule? `CCCCCCCCCCCC(=O)O[C@H](CCCCCCCCCCC)CC(=O)N[C@H]1[C@H](OC[C@H]2O[C@H](O)[C@H](NC(=O)C[C@H](O)CCCCCCCCCCC)[C@@H](O)[C@@H]2O)O[C@H](CO)[C@@H](OP(=O)(O)O)[C@@H]1O`
**Result** 0.19 pg/mL

**Query** Continue with CCCCCCCCCCCC(=O)O[C@H](CCCCCCCCCCC)CC(=O)N[C@H]1[C@H](OC[C@H]2O[C@H](OCC(O)CO)[C@H](NC(=O)C[C@H](O)CCCCCCCCCCC)[C@@H](O)[C@@H]2O)O[C@H](CO)[C@@H](OP(=O)(O)O)[C@@H]1O (stereo partly shown)
**Result** 0.37 pg/mL

**Query** One more molecule: `CCCCCCCCCCCC(=O)O[C@H](CCCCCCCCCCC)CC(=O)N[C@H]1[C@H](OC[C@H]2O[C@H](OCCC)[C@H](NC(=O)C[C@H](O)CCCCCCCCCCC)[C@@H](O)[C@@H]2O)O[C@H](CO)[C@@H](OP(=O)(O)O)[C@@H]1O`
**Result** 0.88 pg/mL

**Query** Same question, `CCCCCCCCCCCC(=O)O[C@H](CCCCCCCCCCC)CC(=O)N[C@H]1[C@H](OC[C@H]2O[C@H](OCCOP(=O)(O)O)[C@H](NC(=O)C[C@H](O)CCCCCCCCCCC)[C@@H](O)[C@@H]2O)O[C@H](CO)[C@@H](OP(=O)(O)O)[C@@H]1O` this time
**Result** 1.66 pg/mL

Source listed as patent US20100168054A1.
